Biological target: IL-17A/A (Homo sapiens, UniProt Q16552)
Construct: purchased Genscript Z03228
Assay: IL-17A/A HEK-Blue Cell Assay
Assay type: cell-based
Conditions: HEK-Blue IL-17A reporter cell line, SEAP readout at A630, 20 hours incubation with IL-17A/A; top concentration 10 uM, 1 uM or 0.3 uM; read-out: IL-17A/A inhibition (pIC50) (converted)
METRIC_NAME: IC50

Here's what some known entries look like.
CCC(=O)N[C@@H](C(=O)N1CCN(C)CC1)[C@@H](C)c1ccc(NC(=O)[C@@H](NC(=O)C(F)(F)c2cncc(OC)c2)C2CCCCC2)c(F)c1 ... 10 to 100 nM
CCC(=O)N[C@@H](C(=O)N1CCN(C)CC1)[C@@H](C)c1ccc(NC(=O)[C@@H](NC(=O)c2nonc2OC)[C@H]2CC[C@H](C)CC2)c(F)c1 ... 10 to 100 nM
CCC(=O)N[C@H](Cc1ccc(NC(=O)[C@@H](NC(=O)c2ccnn2CC)C2CCCCC2)cc1Cl)C(=O)N1CCN(C)CC1 ... 100 to 10000 nM
CCC(=O)N[C@@H](C(=O)N1CCN(C)CC1)[C@@H](C)c1ccc(NC(=O)[C@@H](NC(=O)c2conc2C2CC2)C2CCCCCC2)c(F)c1 ... < 10 nM

Incoming: Report its IC50 with IL-17A/A (Homo sapiens, UniProt Q16552) as the test system: "CCC(=O)N[C@H](Cc1ccc(NC(=O)[C@@H](NC(=O)c2coc3cc(OC)ccc23)C2CCCCC2)c(F)c1)C(=O)N1CCN(C)CC1"
Outgoing: 10 to 100 nM

###

Listed here: items and their measured IC50.
Molecular target: IL-17A/A (Homo sapiens)
Construct: purchased Genscript Z03228
Sequence (Q16552 24-155): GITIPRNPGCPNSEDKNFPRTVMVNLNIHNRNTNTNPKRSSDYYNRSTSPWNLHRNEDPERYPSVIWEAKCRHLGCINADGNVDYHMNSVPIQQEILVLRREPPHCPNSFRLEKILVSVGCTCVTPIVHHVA
Assay: IL-17A/A HEK-Blue Cell Assay
Format: cell-based
Conditions: HEK-Blue IL-17A reporter cell line, SEAP readout at A630, 20 hours incubation with IL-17A/A; top concentration 10 uM, 1 uM or 0.3 uM; read-out: IL-17A/A inhibition (pIC50) (converted)

Here's what some known entries look like.
CCn1nccc1C(=O)N[C@H](C(=O)Nc1ccc([C@H](C)[C@@H](NC(=O)c2cncn2C)C(=O)N2CCN(C)CC2)cc1F)C1CCCCC1 ... 100 to 10000 nM
CCC(=O)N[C@@H](C(=O)N1CCC(O)CC1)[C@@H](C)c1ccc(NC(=O)[C@@H](NC(=O)c2ccnn2CC)[C@H]2CC[C@H](C)CC2)c(F)c1 ... 10 to 100 nM

Let us examine a further case.
Incoming: Identify measured IC50 corresponding to "CCc1nonc1C(=O)N[C@H](C(=O)Nc1ccc([C@H](C)[C@@H](NC(=O)N(C)C)C(=O)N2CCN(C)CC2)cc1F)[C@H]1CC[C@H](C)CC1"
Outgoing: < 10 nM

These entries and their values trace back to patent US12421212B2.
